# System: Eimeria maxima
# TEST NAME: Cage experiments coccidiosis/chicks, Eimeria maxima part of the mixed infection; note: key: 2 = complete action; 1 = weak action; 0 = inactive; D = death
# Format: in vivo, chicken chicks
# CONDITION PARAMETERS: Dose 25 ppm; second symbol of cell
Entries and their measured Efficacy against Eimeria maxima (grade) follow.
Lab note: record just the number, no unit beside it.

In the examples that follow, each entry is paired with its recorded Efficacy against Eimeria maxima (grade).
[[record]]
smiles = "Cc1oc(=O)oc1Cn1c(C(F)(F)F)nc2cc(Cl)c(C(F)(F)F)cc21"
measurement_type = "Efficacy against Eimeria maxima (grade)"
number = 1

[[record]]
smiles = "Cc1oc(=O)oc1Cn1c(C(F)(F)F)nc2cc(C(F)(F)F)c(Cl)cc21"
measurement_type = "Efficacy against Eimeria maxima (grade)"
number = 0

[[record]]
smiles = "Cc1oc(=O)oc1Cn1c(C(F)(F)F)nc2c(Cl)cc(C(F)(F)F)cc21"
measurement_type = "Efficacy against Eimeria maxima (grade)"
number = 2


Q: Could you please provide reported Efficacy against Eimeria maxima (grade) for Cc1oc(=O)oc1Cn1c(C(F)(F)F)nc2c(Cl)cc3c(c21)OC(F)(F)C(F)(F)O3 ? Thanks!
Result: 2

* * *

# Tested on: Eimeria acervulina, Eimeria maxima and Eimeria tenella
# TEST NAME: Cage experiments coccidiosis/chicks, mixed experimental infection
# Format: in vivo, chicken chicks
# CONDITION PARAMETERS: 5 ppm in feed
Entries and their measured mortality n (died/employed) follow.

In the examples that follow, each entry is paired with its recorded mortality n (died/employed).
[[record]]
molecule = "Cc1oc(=O)oc1Cn1c(C(F)(F)F)nc2cc(C(F)(F)F)c(C(F)(F)F)cc21 [Example 13]"
measurement_type = "mortality n (died/employed)"
result = "1/3"

[[record]]
molecule = "Cc1oc(=O)oc1Cn1c(C(F)(F)F)nc2cc(Cl)c(C(F)(F)F)cc21 [Example 18]"
measurement_type = "mortality n (died/employed)"
result = "0/3"

[[record]]
molecule = "Cc1oc(=O)oc1Cn1c(C(F)(F)F)nc2c(Cl)cc3c(c21)OC(F)(F)C(F)(F)O3 [Example 15]"
measurement_type = "mortality n (died/employed)"
result = "0/3"


Q: Could you please provide reported mortality n (died/employed) for Cc1oc(=O)oc1Cn1c(C(F)(F)F)nc2c(Br)cc3c(c21)OC(F)(F)C(F)(F)O3 [Example 14] ? Thanks!
Result: 1/3

Q: Could you please provide reported mortality n (died/employed) for Cc1oc(=O)oc1Cn1c(C(F)(F)F)nc2c(Cl)cc(C(F)(F)F)cc21 [Example 11] ? Thanks!
Result: 2/3

Q: Could you please provide reported mortality n (died/employed) for Cc1oc(=O)oc1Cn1c(C(F)(F)F)nc2c(C(F)(F)F)cc(C(F)(F)F)cc21 [Example 28] ? Thanks!
Result: 0/3

Q: Could you please provide reported mortality n (died/employed) for Cc1oc(=O)oc1Cn1c(C(F)(F)F)nc2cc(C(F)(F)F)c(Cl)cc21 [Example 19] ? Thanks!
Result: 0/3

* * *

# Tested on: Eimeria acervulina, Eimeria maxima and Eimeria tenella
# TEST NAME: Cage experiments coccidiosis/chicks, mixed experimental infection
# Assay type: in vivo, chicken chicks
# CONDITION PARAMETERS: 5 ppm in feed
# Protocol: The efficacy of the compounds according to the invention can be confirmed, for example, in cage experiments using the following experimental arrangement, in which the animals are treated with the respective individual components and with the mixtures of the individual components. […] In the column “% efficacy”, the overall rating is assessed; 0% means no action, 100% means complete action.
MEASUREMENT TYPE: % efficacy tot. (%)
A number alone suffices; assume %.

In the examples that follow, each entry is paired with its recorded % efficacy tot..
[[record]]
smiles = "Cc1oc(=O)oc1Cn1c(C(F)(F)F)nc2c(Br)cc3c(c21)OC(F)(F)C(F)(F)O3"
tested_on = "Eimeria acervulina, Eimeria maxima and Eimeria tenella"
number = 66

[[record]]
smiles = "Cc1oc(=O)oc1Cn1c(C(F)(F)F)nc2cc(Cl)c(C(F)(F)F)cc21"
tested_on = "Eimeria acervulina, Eimeria maxima and Eimeria tenella"
number = 7

[[record]]
smiles = "Cc1oc(=O)oc1Cn1c(C(F)(F)F)nc2c(Cl)cc(C(F)(F)F)cc21"
tested_on = "Eimeria acervulina, Eimeria maxima and Eimeria tenella"
number = 0


Q: Could you please provide reported % efficacy tot. for Cc1oc(=O)oc1Cn1c(C(F)(F)F)nc2c(C(F)(F)F)cc(C(F)(F)F)cc21 ? Thanks!
Result: 75

Q: Could you please provide reported % efficacy tot. for Cc1oc(=O)oc1Cn1c(C(F)(F)F)nc2cc(C(F)(F)F)c(Cl)cc21 ? Thanks!
Result: 7

Q: Could you please provide reported % efficacy tot. for Cc1oc(=O)oc1Cn1c(C(F)(F)F)nc2cc(C(F)(F)F)c(C(F)(F)F)cc21 ? Thanks!
Result: 50

Q: Could you please provide reported % efficacy tot. for Cc1oc(=O)oc1Cn1c(C(F)(F)F)nc2c(Cl)cc3c(c21)OC(F)(F)C(F)(F)O3 ? Thanks!
Result: 75

* * *

Entries and their measured Efficacy against Eimeria tenella (grade) follow.
# Test system: Eimeria tenella
# TEST NAME: Cage experiments coccidiosis/chicks, Eimeria tenella part of the mixed infection; for Efficacy against Eimeria tenella (grade): key: 2 = complete action; 1 = weak action; 0 = inactive; D = death
# Type: in vivo, chicken chicks
# CONDITION PARAMETERS: Dose 5 ppm; third symbol of cell
Lab note: record just the number, no unit beside it.

Q: Could you please provide reported Efficacy against Eimeria tenella (grade) for Cc1oc(=O)oc1Cn1c(C(F)(F)F)nc2cc(C(F)(F)F)c(Cl)cc21 [Example 19] ? Thanks!
Result: 0

Q: Could you please provide reported Efficacy against Eimeria tenella (grade) for Cc1oc(=O)oc1Cn1c(C(F)(F)F)nc2c(Br)cc3c(c21)OC(F)(F)C(F)(F)O3 [Example 14] ? Thanks!
Result: 1

Q: Could you please provide reported Efficacy against Eimeria tenella (grade) for Cc1oc(=O)oc1Cn1c(C(F)(F)F)nc2c(C(F)(F)F)cc(C(F)(F)F)cc21 [Example 28] ? Thanks!
Result: 2

Q: Could you please provide reported Efficacy against Eimeria tenella (grade) for Cc1oc(=O)oc1Cn1c(C(F)(F)F)nc2c(Cl)cc(C(F)(F)F)cc21 [Example 11] ? Thanks!
Result: 0

Q: Could you please provide reported Efficacy against Eimeria tenella (grade) for Cc1oc(=O)oc1Cn1c(C(F)(F)F)nc2cc(Cl)c(C(F)(F)F)cc21 [Example 18] ? Thanks!
Result: 0

Q: Could you please provide reported Efficacy against Eimeria tenella (grade) for Cc1oc(=O)oc1Cn1c(C(F)(F)F)nc2cc(C(F)(F)F)c(C(F)(F)F)cc21 [Example 13] ? Thanks!
Result: 1

Q: Could you please provide reported Efficacy against Eimeria tenella (grade) for Cc1oc(=O)oc1Cn1c(C(F)(F)F)nc2c(Cl)cc3c(c21)OC(F)(F)C(F)(F)O3 [Example 15] ? Thanks!
Result: 1

* * *

# Test system: Eimeria maxima
# TEST NAME: Cage experiments coccidiosis/chicks, Eimeria maxima part of the mixed infection; note: key: 2 = complete action; 1 = weak action; 0 = inactive; D = death
# Assay type: in vivo, chicken chicks
# CONDITION PARAMETERS: Dose 10 ppm; second symbol of cell
MEASUREMENT TYPE: Efficacy against Eimeria maxima (grade)
Lab note: record just the number, no unit beside it.

In the examples that follow, each entry is paired with its recorded Efficacy against Eimeria maxima (grade).
[[record]]
molecule = "Cc1oc(=O)oc1Cn1c(C(F)(F)F)nc2c(C(F)(F)F)cc(C(F)(F)F)cc21 [Example 28]"
number = 2

[[record]]
molecule = "Cc1oc(=O)oc1Cn1c(C(F)(F)F)nc2c(Br)cc3c(c21)OC(F)(F)C(F)(F)O3 [Example 14]"
number = 2

[[record]]
molecule = "Cc1oc(=O)oc1Cn1c(C(F)(F)F)nc2cc(C(F)(F)F)c(C(F)(F)F)cc21 [Example 13]"
number = 2


Pending molecule:
Q: Could you please provide reported Efficacy against Eimeria maxima (grade) for Cc1oc(=O)oc1Cn1c(C(F)(F)F)nc2c(Cl)cc(C(F)(F)F)cc21 [Example 11] ? Thanks!
Result: 1

* * *

# Tested on: Eimeria tenella
# TEST NAME: Cage experiments coccidiosis/chicks, Eimeria tenella part of the mixed infection
# Type: in vivo, chicken chicks
# CONDITION PARAMETERS: 5 ppm in feed
Entries and their measured oocyst in % of inf. control ten. follow.
A number alone suffices; assume %.

In the examples that follow, each entry is paired with its recorded oocyst in % of inf. control ten..
[[record]]
compound = "Cc1oc(=O)oc1Cn1c(C(F)(F)F)nc2c(Br)cc3c(c21)OC(F)(F)C(F)(F)O3 [Example 14]"
measurement_type = "oocyst in % of inf. control ten."
number = 1

[[record]]
compound = "Cc1oc(=O)oc1Cn1c(C(F)(F)F)nc2cc(C(F)(F)F)c(C(F)(F)F)cc21 [Example 13]"
measurement_type = "oocyst in % of inf. control ten."
number = 3

[[record]]
compound = "Cc1oc(=O)oc1Cn1c(C(F)(F)F)nc2c(Cl)cc3c(c21)OC(F)(F)C(F)(F)O3 [Example 15]"
measurement_type = "oocyst in % of inf. control ten."
number = 0


Pending compound:
Q: Could you please provide reported oocyst in % of inf. control ten. for Cc1oc(=O)oc1Cn1c(C(F)(F)F)nc2c(C(F)(F)F)cc(C(F)(F)F)cc21 [Example 28] ? Thanks!
Result: 0
